Read-out: Interleukin 6 (IL6), IL6 (gene 3569)
ASSAY_DETAILS: BSK_BT_xIL6: BioMAP Diversity Plus: BT Assay for Interleukin 6 (IL6) Biomarker Activity (AID 2284228)
COND: primary human B cells with PBMC
Active and inactive are the calls of the source. The calls were made as follows: active = hit-call score of the fitted dose curve at least 0.9, where 1 is the maximum; inactive = score below 0.9.
Give your call using only these classes: active, inactive

> print(dat)
                                   compound  class.assignment
1  Nc1c(Oc2ccccc2)cc(O)c2c1C(=O)c1ccccc1C2=O          inactive
2                               O=C(CCl)NCO          inactive
3                O=C(O)COc1cc(Cl)c(Cl)cc1Cl          inactive
4  CCOC(=O)CCN(SN(C)C(=O)Oc1cccc2c1OC(C)(C)C2)C(C)C            active
5  C[C@]12CC[C@@H](O)C[C@@H]1CC[C@@H]1[C@@H]2CC[C@]2(C)C(=O)CC[C@@H]12          inactive
6  [Cl][Sn]([c]1ccccc1)([c]1ccccc1)[c]1ccccc1            active
7               CCOP(=S)(OCC)OP(=S)(OCC)OCC          inactive
8          CCOP(=S)(OCC)SCS(=O)(=O)C(C)(C)C          inactive

Test call for this compound, please: O=c1oc2ccccc2c(O)c1C(CC(O)c1ccc(-c2ccc(Br)cc2)cc1)c1ccccc1 (configuration not stated) inactive

Repeat with Cc1c([N+](=O)[O-])c(C)c([N+](=O)[O-])c(C(C)(C)C)c1[N+](=O)[O-] inactive

Another: Nc1ccc(N)cc1 inactive

Note, next up: C=CC(Cl)CCl (configuration not stated) inactive

Please answer likewise for CCC(C)(C#N)N=NC(C)(C#N)CC (configuration not stated) inactive

Another compound: Oc1c(Br)cc(Br)cc1Br inactive

CC(C)N(C(=O)CCl)c1ccccc1 ? active

Also N#CCCC(Br)(C#N)CBr (configuration not stated) ? active

Field entry: Cc1cc(Cl)ccc1OC(C)C(=O)O (configuration not stated) inactive
